Give measured protein stability index for each item. Keep answers brief.
B1: DYRK1B (parent)
chain: KKVLNHGYDDDNHDYIVRSGERWL

Variants of: B1
experiment: protein stability index of a GFP-peptide fusion (GPS, HEK-293T) (PSI 1-6); higher = more stable;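 note: lentivirally expressed fusions sorted by FACS into six bins by GFP to DsRed ratio, PSI derived from sequencing read proportions per bin multiplied by bin number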
protocol conditions: c terminus: a fixed tail appended
One number for each entry.

Solved cases below.
KKVLNHGYDDDNHDYIYRSGERWL : 2.94
MKVLNHGYDDDNHDYIVRSGERWL : 3.09
KKVLRHGYDDDNHDYIVRSGERWL : 2.92

Could you now look at the following variant, please?
Tell me the measured protein stability index of KKVLNHGYDDANHDYIVRSGERWL , please.
3.09

# credit: the supplement of paper PMC10567573
